target: T1, Cyno CD47 ECD protein, His-tagged, monomer (cyno); experiment: ProteOn SPR; mAb captured, ECD monomer as analyte
T1 construct: extracellular domain; also called cynomolgus CD47
Measured Kd by item
A number alone suffices; assume nM.

C47B240 (antibody, V domains shown, human IgG2sigma/kappa) VH: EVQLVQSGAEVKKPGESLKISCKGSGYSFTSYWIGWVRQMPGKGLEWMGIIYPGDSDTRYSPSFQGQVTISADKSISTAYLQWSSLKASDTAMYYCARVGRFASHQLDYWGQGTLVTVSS VL: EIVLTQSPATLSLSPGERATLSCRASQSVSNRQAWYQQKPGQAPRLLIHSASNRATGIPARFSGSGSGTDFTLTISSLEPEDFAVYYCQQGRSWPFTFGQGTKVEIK ... 9.23
C47B232 (antibody, V domains shown, human IgG2sigma/kappa) VH: EVQLVQSGAEVKKPGESLKISCKGSGYSFTNYWIGWVRQMPGKGLEWMGIIYPGDSDTRYSPSFQGQVTISADKSISTAYLQWSSLKASDTAVYYCARVGRFASHQLDYWGQGTLVTVSS VL: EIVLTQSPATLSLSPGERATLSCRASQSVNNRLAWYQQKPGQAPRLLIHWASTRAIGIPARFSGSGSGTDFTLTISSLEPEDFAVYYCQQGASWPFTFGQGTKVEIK ... 2.42

Now, please, on to the next binder.
**Query** For C47B221 (antibody, V domains shown, human IgG2sigma/kappa) VH: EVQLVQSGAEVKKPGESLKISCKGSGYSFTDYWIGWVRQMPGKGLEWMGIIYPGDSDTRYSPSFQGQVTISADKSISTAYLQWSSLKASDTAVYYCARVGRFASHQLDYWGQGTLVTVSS VL: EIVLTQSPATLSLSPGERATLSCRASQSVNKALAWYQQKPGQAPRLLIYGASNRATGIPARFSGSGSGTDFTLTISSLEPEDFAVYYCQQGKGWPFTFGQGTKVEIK , write its Kd.
**Result** 4.5

Where do the numbers come from? From patent US20180250395A1.
